# reported viability; entries follow
# assay: MRP1 drug-resistance reversers in H69AR cells – cell-based, doxorubicin co-treatment, pilot screen (AID 601)
# test parameters: H69AR cells, CellTiter-Glo, 72 h; compound alone cytotoxicity; at 10 µM
Answer in %, number only, no unit symbol.

>>> print(df.to_string())
                                  compound  readout_kind  reported_value
0  CNCC(O)c1ccc(O)cc1 (stereo unspecified)     viability             102

Then this compound:
Request: I would be grateful if you could share the reported viability for O=C1C2CCCN2C(c2ccc(Cl)c(Cl)c2)N1c1ccccn1 (stereo unspecified) .
Response: 97.4
